# Study System: Human KLK1 (Homo sapiens (Human))
# Sequence (P06870 25-262): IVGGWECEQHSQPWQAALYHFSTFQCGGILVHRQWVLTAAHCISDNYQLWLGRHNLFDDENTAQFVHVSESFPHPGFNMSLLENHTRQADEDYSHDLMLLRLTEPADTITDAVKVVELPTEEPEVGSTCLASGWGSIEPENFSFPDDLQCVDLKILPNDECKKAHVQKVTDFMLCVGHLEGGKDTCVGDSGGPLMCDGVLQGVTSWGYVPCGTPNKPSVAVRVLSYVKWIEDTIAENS
# Experiment: Determination of the IC50 for KLK1
# Type: biochemical
# Experimental Parameters: Human KLK1, 37° C., substrate H-DVal-Leu-Arg-AFC; Table 13
Assay Endpoint: IC50

# Compound, IC50
rows = [
    ("CCOc1ccc(C[C@@H](NC(=O)c2ccccc2)C(=O)N[C@@H](Cc2ccccn2)C(=O)NCc2ccc(CN)cc2)cc1 [Example 140]", "> 10 µM"),
    ("CCOc1ccc(C[C@@H](NC(=O)c2ccccc2)C(=O)N[C@@H](Cc2ccc(Cl)cc2)C(=O)NCc2ccc(CN)cc2)cc1 [Example 142]", "> 10 µM"),
    ("CCOc1ccc(C[C@@H](NC(=O)c2sccc2N)C(=O)N[C@@H](Cc2csc3ccccc23)C(=O)NCc2ccc(CN)cc2)cc1 [Example 194]", "7.1 µM"),
    ("CCOc1ccc(C[C@@H](NC(=O)c2ccco2)C(=O)N[C@@H](Cc2ccccc2)C(=O)NCc2ccc(CN)cc2)cc1 [Example 118]", "> 10 µM"),
]

Value of measured IC50 for the entry CCOc1ccc(C[C@@H](NC(=O)c2ccccc2)C(=O)N[C@@H](Cc2ccc(C(F)(F)F)cc2)C(=O)NCc2ccc(CN)cc2)cc1 [Example 148] : > 10 µM

Value of measured IC50 for the entry CCOc1ccc(C[C@@H](NC(=O)c2cnc3cc(Cl)ccc3c2)C(=O)N[C@@H](Cc2ccccc2)C(=O)NCc2ccc(CN)cc2)cc1 [Example 115] : 9 µM

Value of measured IC50 for the entry CCOc1ccc(C[C@@H](NC(=O)c2ccc(Cl)cc2)C(=O)N[C@@H](Cc2ccccn2)C(=O)NCc2ccc(CN)cc2)cc1 [Example 163] : > 10 µM

Value of measured IC50 for the entry CCOc1ccc(C[C@@H](NC(=O)c2ccccc2)C(=O)N[C@@H](Cc2ccc(Cl)c(Cl)c2)C(=O)NCc2ccc(CN)cc2)cc1 [Example 141] : > 10 µM

Value of measured IC50 for the entry CCOc1ccc(C[C@@H](NC(=O)c2ccncc2)C(=O)N[C@@H](Cc2ccccc2)C(=O)NCc2ccc(CN)c(F)c2)cc1 [Example 167] : > 10 µM

Value of measured IC50 for the entry CCOc1ccc(C[C@@H](NC(=O)C23CC4CC(CC(C4)C2)C3)C(=O)N[C@@H](Cc2ccccc2)C(=O)NCc2ccc(CN)cc2)cc1 [Example 91] : > 10 µM

Value of measured IC50 for the entry CCOc1ccc(C[C@@H](NC(=O)c2ccccc2)C(=O)N[C@@H](Cc2ccccc2)C(=O)NCc2ccc(CN)c(C(F)(F)F)c2)cc1 [Example 156] : > 10 µM

Value of measured IC50 for the entry CC(C)C[C@@H](NC(=O)c1ccccc1)C(=O)N[C@@H](Cc1ccccc1)C(=O)NCc1ccc(CN)cc1 [Example 133] : > 10 µM

Value of measured IC50 for the entry CCOc1ccc(C[C@@H](NC(=O)c2ccccc2)C(=O)N[C@@H](Cc2cccc(C(F)(F)F)c2)C(=O)NCc2ccc(CN)cc2)cc1 [Example 144] : > 10 µM

Value of measured IC50 for the entry CCOc1ccc(C[C@@H](NC(=O)Nc2ccccc2)C(=O)N[C@@H](Cc2ccccc2)C(=O)NCc2ccc(CN)cc2)cc1 [Example 69] : > 10 µM

Value of measured IC50 for the entry CCOc1ccc(C[C@@H](NC(=O)c2cccc(C)c2)C(=O)N[C@@H](Cc2cccnc2)C(=O)NCc2ccc(CN)cc2)cc1 [Example 189] : > 10 µM

Value of measured IC50 for the entry NCc1ccc(CNC(=O)[C@H](Cc2ccccc2)NC(=O)[C@@H](Cc2ccccc2)NC(=O)c2ccccc2)cc1 [Example 139] : > 10 µM

Value of measured IC50 for the entry CCOc1ccc(C[C@@H](NC(=O)c2ccccc2)C(=O)N[C@@H](Cc2cccnc2)C(=O)NCc2ccc(CN)cc2)cc1 [Example 145] : > 10 µM

Value of measured IC50 for the entry CCOc1ccc(C[C@@H](NC(=O)c2ccccc2)C(=O)N[C@@H](Cc2ccc(F)c(F)c2)C(=O)NCc2ccc(CN)cc2)cc1 [Example 200] : 7.6 µM

Value of measured IC50 for the entry CCOc1ccc(C[C@@H](NC(=O)c2cc(C)nc(Cl)c2)C(=O)N[C@@H](Cc2ccccc2)C(=O)NCc2ccc(CN)cc2)cc1 [Example 110] : > 10 µM

Value of measured IC50 for the entry CCOc1ccc(C[C@@H](NC(=O)c2cccs2)C(=O)N[C@@H](Cc2ccc(Cl)c(Cl)c2)C(=O)NCc2ccc(CN)cc2)cc1 [Example 169] : 9.9 µM

Value of measured IC50 for the entry CCOc1ccc(C[C@@H](NC(=O)c2sccc2Cl)C(=O)N[C@H](C(=O)NCc2ccc(CN)cc2)[C@H](O)c2ccccc2)cc1 [Example 198] : 9.1 µM

Value of measured IC50 for the entry CCOc1ccc(C[C@@H](NC(=O)c2cc3ccccc3s2)C(=O)N[C@@H](Cc2ccccc2)C(=O)NCc2ccc(CN)cc2)cc1 [Example 83] : > 10 µM

Value of measured IC50 for the entry CCOc1ccc(C[C@@H](NC(=O)c2ccccc2C)C(=O)N[C@@H](Cc2cccnc2)C(=O)NCc2ccc(CN)cc2)cc1 [Example 190] : > 10 µM

Value of measured IC50 for the entry CCOc1ccc(C[C@@H](NC(=O)CC)C(=O)N[C@@H](Cc2ccccn2)C(=O)NCc2ccc(CN)cc2)cc1 [Example 166] : > 10 µM

Value of measured IC50 for the entry CCOc1ccc(C[C@@H](NC(=O)C2CC2)C(=O)N[C@@H](Cc2ccccc2)C(=O)NCc2ccc(CN)cc2)cc1 [Example 74] : > 10 µM
